- System: LOX IMVI
- Assay Remarks: NCI tumour cell line growth inhibition, 48 h
Calls of active or inactive are those of the source. No stated cut-off is given here; in the data, active = GI50 up to about 1.1 µM and inactive = higher.
Assay Readout: GI50

Compound	Value Measured
O=C(NCCS(=O)(=O)N1C(=O)C2CCCN2C(=O)[C@@H]1Cc1ccccc1)OCc1ccccc1 (stereo partly drawn)	50.6 µM (inactive)
COc1cccc(C2SC(=N)Nc3c2c(C)nn3C(=O)Cc2ccccc2)c1 (stereo not drawn)	> 100 µM (inactive)
NC(C(=O)O)C(O)c1c[nH]cn1 (stereo not drawn)	> 100 µM (inactive)
CC(C)(C)OC1=C(OC(C)(C)C)C(O)(c2ccc(Cl)cc2)C1=O (stereo not drawn)	> 100 µM (inactive)
C[C@H](CCC(=O)O)[C@H]1CC[C@H]2[C@@H]3[C@H](O)C[C@@H]4C[C@H](O)CC[C@]4(C)[C@H]3CC[C@]12C	32.5 µM (inactive)
O=C(CCC=C(S(=O)(=O)c1ccccc1)S(=O)(=O)c1ccccc1)c1ccccc1	3.26 µM (inactive)
CC(=O)c1c(O)c(C)c(O)c(Cc2c(O)c3c(c(C(=O)/C=C/c4ccccc4)c2O)OC(C)(C)C=C3)c1O	2.86 µM (inactive)
C/C(CN1C(=O)c2ccccc2C1=O)=N\NS(=O)(=O)c1ccc(F)cc1	> 100 µM (inactive)
